Kindly supply the reported pIC50 values for the records listed here.
Test system: CEM cells HIV-1 protection, formazan growth assay
assay-remarks: NCI AIDS Antiviral Assay
test-parameters: measured here: growth of uninfected CEM cells
Give bare numbers, as −log10 of the molar value.

Take a look at these entries with their results.
compound	pIC50
O=C(OCCSSCCOC(=O)c1ccc([N+](=O)[O-])cc1)c1ccc([N+](=O)[O-])cc1	4.92
O=c1ccc2cc3ccoc3c(OCCOCCOCCOCCOc3c4occc4cc4ccc(=O)oc34)c2o1	4.97
COc1ccc(SCc2ccc(C(=O)O)cc2[N+](=O)[O-])cc1	3.79

I need pIC50 for every entry listed below, if you could help.
1. Cc1ccc(S(=O)(=O)Oc2nc3ccccc3nc2OS(=O)(=O)c2ccc(C)cc2)cc1
2. N#Cc1ccc(C(=O)/C=C/c2ccc(O)c(O)c2)cc1
3. Cc1cc2c(C(C)C)c(O)c(O)c(C=O)c2c(O)c1-c1c(C)cc2c(C(C)C)c(O)c(O)c(C=O)c2c1O
4. CC(C)(C)C1=CC(=O)C(Cl)(C(C)(C)C)C(Cl)C1=O (stereo unspecified)
5. Clc1ccc(CN2COc3c(ccc4ccccc34)C2)cc1Cl
6. CC1(C)Oc2ccc3c(=O)c(-c4ccccc4)c(-c4ccccc4)oc3c2C1C(=O)O (stereo unspecified)

1. 4.41
2. 4.99
3. 5.91
4. 5.94
5. 4.50
6. 4.14

---

Provide the recorded pIC50 for the entries that follow.
Tested on: CEM cells HIV-1 protection, formazan growth assay
assay-remarks: NCI AIDS Antiviral Assay
test-parameters: measured here: growth of uninfected CEM cells
Give bare numbers, as −log10 of the molar value.

Answered examples (2):
molecular-string	pIC50
CN1C(=O)c2ccccc2Cc2c(Cl)ncnc21	4.46
CN(CCN)[C@H](CSSC[C@@H](c1ccccc1O)N(C)CCN)c1ccccc1O	4.75

Given `COC(=O)c1cc(C(=CCCN=[N+]=[N-])c2cc(Br)c(OC)c(C(=O)OC)c2)cc(Br)c1OC` , state its recorded pIC50.
4.03

---

Test system: CEM cells HIV-1 protection, formazan growth assay
assay-remarks: NCI AIDS Antiviral Assay
Experimental: The ability of compounds to protect human CEM cells from HIV-1 infection is measured as a screen for new compounds capable of inhibiting the HIV virus. Five concentrations of drug were tested on uninfected and infected cells and cell growth was measured using a soluble formazan assay. […] Compounds that provided at least 50% protection were retested. Compounds that provided at least 50% protection on retest were listed as moderately active. […]
measure: EC50

Sample answers from the record:
compound	test-target	EC50
CCOP(=S)(OCC)Oc1ccc2c(c1)OC(=O)C1(Cl)C2(C)C2(Cl)C(=O)Oc3cc(OP(=S)(OCC)OCC)ccc3C12C (stereo not given)	CEM cells HIV-1 protection, formazan growth assay	> 18.6 µM
N#Cc1c(-c2ccc([N+](=O)[O-])cc2)c(C#N)c(=O)n(NS(=O)(=O)c2ccccc2)c1-c1ccccc1	CEM cells HIV-1 protection, formazan growth assay	> 200 µM
O=C1c2ccccc2CC12CCC1(CC2)OCCO1	CEM cells HIV-1 protection, formazan growth assay	> 200 µM
CCOP(=O)(OCC)C(Nc1cccc([N+](=O)[O-])c1)c1ccccc1 (stereo not given)	CEM cells HIV-1 protection, formazan growth assay	> 200 µM
C[C@@H](c1ccccc1)N1CN(C(=O)OCc2ccccc2)C(CO)C1=O (stereo not given in full)	CEM cells HIV-1 protection, formazan growth assay	> 200 µM

For each of the items listed, what is its EC50?
1. CCSC1(SCC)CCN(C=NC(C)(C)C)C1
2. O=C(c1cc2ccccc2o1)N(Cc1ccccc1)c1ccccc1
3. O=[N+]([O-])c1ccc2nsnc2c1
4. CC(C)CC(NC=O)C(=O)NC(Cc1ccccc1)NC(=O)CNC(=O)C(C)NC(=O)C(N)Cc1ccc(O)cc1 (stereo not given)
5. O=c1c2c(-c3ccccc3)c3ccccc3nc2cnn1-c1ccccc1

1. > 912 µM
2. > 79.4 µM
3. > 105 µM
4. 141 µM
5. > 79.4 µM
